Test system: LOX IMVI melanoma
method_notes: NCI-60 one-dose screen, 48 h (100 = growth as untreated, 0 = no growth, -100 = all killed)
measurement_conditions: 10 µM unless noted
Compounds without any hit were thinned out: in the full panel of roughly 83,000, 20% have a hit. Calls of active or inactive are those of the source. Rule for the calls: active = growth percent below 10; inactive = the rest.
endpoint_label: growth

>  <smiles_text>
FCOC(C(F)(F)F)C(F)(F)F

>  <reported_value>
101% (inactive)

$$$$
>  <smiles_text>
CCCCCCCC/C=C\CCCCCCCCOc1cccc(CC(=O)NCC[N+]2(C)CCCCC2)c1

>  <reported_value>
74.5% (inactive)

$$$$
>  <smiles_text>
Cc1ccc(NS(=O)(=O)c2ccc(-c3cnc(C4CC4)o3)cc2)cc1

>  <reported_value>
39.2% (inactive)

$$$$
>  <smiles_text>
O=C1C(N2CCOCC2)=Cc2cccc3cccc1c23

>  <reported_value>
101% (inactive)

$$$$

Name the recorded growth for `Cc1ccccc1-n1nnc(C(=O)Nc2ccc(-c3ccccc3)cn2)c1C` .
48.1% [50 µM] (inactive)

Request the reported growth associated with `C(=C\c1ccccc1)/CN1CCN(C(c2ccccc2)c2ccccc2)CC1`
99.7% (inactive)

---

Tested on: MALME-3M melanoma
method_notes: NCI-60 one-dose screen, 48 h (100 = growth as untreated, 0 = no growth, -100 = all killed)
measurement_conditions: 10 µM unless noted
Compounds without any hit were thinned out: in the full panel of roughly 83,000, 20% have a hit.
endpoint_label: growth (%)
State just the number; it will be interpreted in %.

Worked cases, answers included:
>  <compound>
COc1cc(OCc2cccc(-c3ccc(C(O)c4nccs4)cc3)c2C)cc(OC)c1C=O (stereo not drawn)

>  <tested_target>
MALME-3M melanoma

>  <reported_value>
7.88

$$$$
>  <compound>
COc1cc(/C=C/C(=O)C(=Cc2ccc(F)c(F)c2)C(=O)/C=C/c2ccc(O)c(OC)c2)ccc1O

>  <tested_target>
MALME-3M melanoma

>  <reported_value>
51

$$$$
>  <compound>
O=C(NC1CC1)c1cc2n(n1)CC(c1ccccc1)N2 (stereo not drawn)

>  <tested_target>
MALME-3M melanoma

>  <reported_value>
104

$$$$
>  <compound>
Cn1c2c(cc(S(=O)(=O)c3ccccc3)c1=O)CCc1c-2cnn1-c1ccccc1Cl

>  <tested_target>
MALME-3M melanoma

>  <reported_value>
108

$$$$
>  <compound>
O=C(Nc1nc2ccccc2[nH]1)C(=O)Nc1nc2ccccc2[nH]1

>  <tested_target>
MALME-3M melanoma

>  <reported_value>
91.4

$$$$
>  <compound>
CCCCCCCC/C=C\CCCCCCCCOc1cccc(CC(=O)NCC[N+]2(C)CCOCC2)c1

>  <tested_target>
MALME-3M melanoma

>  <reported_value>
93.3

$$$$
>  <compound>
C[C@@H](Oc1cc(-c2cnn(C3CC4(CCCNC4)C3)c2)cnc1N)c1c(Cl)ccc(F)c1Cl (stereo partly drawn)

>  <tested_target>
MALME-3M melanoma

>  <reported_value>
-64.7

$$$$
>  <compound>
Cc1cc(NS(=O)(=O)c2ccc(NC(=O)COc3ccc(-c4cc5ccccc5[nH]4)cc3)cc2)no1

>  <tested_target>
MALME-3M melanoma

>  <reported_value>
47.6

$$$$
>  <compound>
O=C(NCc1ccco1)C1CCN(S(=O)(=O)c2ccc(Cl)cc2)CC1

>  <tested_target>
MALME-3M melanoma

>  <reported_value>
54.6

$$$$
>  <compound>
O=C(NCc1cccnc1)c1ccc([N+](=O)[O-])o1

>  <tested_target>
MALME-3M melanoma

>  <reported_value>
-61

$$$$

Here's the next entry for you.
What measured growth goes with `COc1ccc2nc(-n3nc(C)cc3C)c(-n3nc(C)cc3C)nc2c1` ?
108
